Data origin, for the record: PubChem BioAssay (NCI)

Could you please report measured TGI for the items listed next?
Test system: UACC-62 melanoma
test.details: NCI tumour cell line growth inhibition, 48 h

Any idea what TGI came out for Cc1ccnc2nc(N)ccc12 on UACC-62 melanoma?
> 100 µM

Check NC(Cc1c[nH]c2cc([N+](=O)[O-])ccc12)C(=O)O (stereo not given) too.
> 100 µM

Check CC(=O)NC1=C(NCCCl)C(=O)c2ccccc2C1=O too.
42.9 µM

Check COc1ccc(/C=C/C(=O)c2ccc(-n3cc(CN4CCN(c5cc6c(cc5F)c(=O)c(C(=O)O)cn6C5CC5)CC4)nn3)cc2)cc1OC too.
8.84 µM

Check C[Si](C)(c1ccc(C(=O)O)cc1)c1ccc(C(=O)O)cc1 too.
> 100 µM

Check C1=C/COCc2cc(ccc2OCCN2CCCC2)Nc2nccc(n2)-c2ccc(o2)COC/1 too.
3.08 µM

Check COc1ccc(C(=O)c2cc3c(N)c(C(=O)Nc4ccccc4)sc3nc2C)cc1 too.
> 100 µM

Check NC(=O)[C@@H](CC1CC1)[C@@H](CCC(F)(F)F)C(=O)N[C@H]1N=C(c2ccccc2)c2cccc(F)c2NC1=O too.
> 100 µM

Check COCC1OC(S(=O)(=O)c2ccccc2)C(O)C(OC)C1OC (stereo not given) too.
> 100 µM

Check CCOc1ccc(/C(C=O)=C(\Cl)c2ccc(OC)cc2)cc1 too.
> 100 µM
